Biological target: Cytochrome P450 1A2 (Homo sapiens) (UniProt P05177)
Sequence (P05177 whole entry, looked up): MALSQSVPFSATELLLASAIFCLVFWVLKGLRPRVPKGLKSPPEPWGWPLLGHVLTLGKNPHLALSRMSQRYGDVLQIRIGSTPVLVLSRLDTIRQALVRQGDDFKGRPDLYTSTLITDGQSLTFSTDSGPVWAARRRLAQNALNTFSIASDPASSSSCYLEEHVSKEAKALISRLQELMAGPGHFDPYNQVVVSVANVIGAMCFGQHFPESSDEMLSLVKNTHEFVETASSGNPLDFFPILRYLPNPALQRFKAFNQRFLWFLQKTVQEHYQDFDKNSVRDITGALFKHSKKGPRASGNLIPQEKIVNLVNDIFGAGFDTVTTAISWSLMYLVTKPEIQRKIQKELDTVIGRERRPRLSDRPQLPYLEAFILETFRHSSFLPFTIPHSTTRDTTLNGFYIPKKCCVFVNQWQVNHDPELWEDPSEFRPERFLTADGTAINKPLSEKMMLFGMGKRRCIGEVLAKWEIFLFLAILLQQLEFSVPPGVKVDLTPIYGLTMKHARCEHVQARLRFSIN
Assay: Cytochrome panel assay with activity outcomes; for activity, negative = inhibition: % is set by controls: 0 for no effect and ±100 for the full control effect
Settings: recombinant CYP, pro-luciferin dealkylation, luminescence, p450-cyp1a2; series mostly up to 57.1 µM
Screen size: about 16,000 compounds; about 5,700 (36%) were called active. Inconclusive results (about 24%) are left out. The list shows a part of the results.
Known activity, negative = inhibition of a selection of compounds

- given_smiles: "CN(C)CCCc1cccnc1"
  activity, negative = inhibition: "-10.2% [at 2.29 µM] (inactive)"
- given_smiles: "C[As+](C)(c1ccc(Br)c([N+](=O)[O-])c1)c1ccc(Br)c([N+](=O)[O-])c1.O=[N+]([O-])O"
  activity, negative = inhibition: "-12.7% [at 11.4 µM] (inactive)"
- given_smiles: "COc1ccc2c(c1)CN([C@H](C)[C@@H]1CC[C@@H]3[C@H]4CC[C@H]5C[C@@H](O)CC[C@@]5(C)[C@H]4CC[C@]31C)CO2"
  activity, negative = inhibition: "-17.9% [at 2.29 µM] (inactive)"
- given_smiles: "CC(C)CCC[C@@H](C)[C@@H]1CC[C@@H]2[C@H]3CC[C@H]4C[C@@H](N)CC[C@@]4(C)[C@@H]3CC[C@]21C"
  activity, negative = inhibition: "3.33% [at 11.4 µM] (inactive)"
- given_smiles: "Nc1nc(N)c(N=Nc2ccc([As](=O)(O)O)cc2)c(=O)[nH]1"
  activity, negative = inhibition: "-14.9% [at 2.29 µM] (inactive)"
- given_smiles: "C[C@H]1CC[C@@]2(NC1)O[C@@H]1C[C@@H]3[C@@H]4CC=C5C[C@@H](O)CC[C@]5(C)[C@@H]4CC[C@]3(C)[C@H]1[C@@H]2C"
  activity, negative = inhibition: "-1.04% [at 11.4 µM] (inactive)"

----------
Biological target: Cytochrome P450 1A2 (Homo sapiens) (UniProt P05177)
Test: Cytochrome panel assay with activity outcomes
Details: recombinant CYP, pro-luciferin dealkylation, luminescence, p450-cyp1a2; series mostly up to 57.1 µM
The campaign covered roughly 16,000 compounds. About 5,700 (36%) were called active. Inconclusive results (about 24%) are left out. Calls come from the whole dose curve; as a rule, active = well fitted curve in the direction sought with a large enough effect; inconclusive = small, poorly fitted or top-dose-only effect, or effect the other way; inactive = no such curve, though single readings can be large or run the other way. The list shows a part of the results.
Outcomes: active, inactive

- molecule: "COc1ccc2[nH]cc(CCN)c2c1"
  target_or_system: "Cytochrome P450 1A2 (Homo sapiens) (UniProt P05177)"
  group_label: "active"
- molecule: "CC(=O)c1ccc2c(c1)N(CCCN(C)C)c1ccccc1S2"
  target_or_system: "Cytochrome P450 1A2 (Homo sapiens) (UniProt P05177)"
  group_label: "active"
- molecule: "COc1ccc(C(=O)OC2C[C@H]3CC[C@@H](C2)N3C)cc1OC (some centres undefined)"
  target_or_system: "Cytochrome P450 1A2 (Homo sapiens) (UniProt P05177)"
  group_label: "inactive"
- molecule: "CC(C)[N+](C)(CCC(C(N)=O)(c1ccccc1)c1ccccc1)C(C)C"
  target_or_system: "Cytochrome P450 1A2 (Homo sapiens) (UniProt P05177)"
  group_label: "inactive"
- molecule: "N[C@@H](Cn1ccc(=O)n(Cc2ccc(C(=O)O)cc2)c1=O)C(=O)O"
  target_or_system: "Cytochrome P450 1A2 (Homo sapiens) (UniProt P05177)"
  group_label: "inactive"
- molecule: "C[N+]1([O-])[C@@H]2CC[C@H]1CC(OC(=O)[C@@H](CO)c1ccccc1)C2 (some centres undefined)"
  target_or_system: "Cytochrome P450 1A2 (Homo sapiens) (UniProt P05177)"
  group_label: "inactive"
- molecule: "COC(=O)N1CCC2(CCN(CC(C)C)CC2)CC1"
  target_or_system: "Cytochrome P450 1A2 (Homo sapiens) (UniProt P05177)"
  group_label: "inactive"
- molecule: "Clc1cccc(N2CCNCC2)c1"
  target_or_system: "Cytochrome P450 1A2 (Homo sapiens) (UniProt P05177)"
  group_label: "active"
- molecule: "c1ccc(N2CCCC3(CCNCC3)C2)cc1"
  target_or_system: "Cytochrome P450 1A2 (Homo sapiens) (UniProt P05177)"
  group_label: "inactive"
- molecule: "Cc1ccc(S(=O)(=O)N[C@@H](CCCCN)C(=O)CCl)cc1"
  target_or_system: "Cytochrome P450 1A2 (Homo sapiens) (UniProt P05177)"
  group_label: "inactive"
- molecule: "CN1C(=O)C(C2c3ccccc3C(=O)N2Cc2ccc([N+](=O)[O-])cc2)C(=O)N(C)C1=O (centres undefined)"
  target_or_system: "Cytochrome P450 1A2 (Homo sapiens) (UniProt P05177)"
  group_label: "inactive"
- molecule: "CC(=O)OCC1=C(C(=O)O)N2C(=O)[C@@H](N)[C@@H]2SC1"
  target_or_system: "Cytochrome P450 1A2 (Homo sapiens) (UniProt P05177)"
  group_label: "inactive"
- molecule: "CC[C@H]1CN2CC[C@@H]1C[C@H]2[C@@H](O)c1ccnc2ccc(OC)cc12"
  target_or_system: "Cytochrome P450 1A2 (Homo sapiens) (UniProt P05177)"
  group_label: "inactive"
- molecule: "C=CCN1C(=O)c2ccccc2Sc2ccc(C(=O)N3CCC4(CC3)OCCO4)cc21"
  target_or_system: "Cytochrome P450 1A2 (Homo sapiens) (UniProt P05177)"
  group_label: "inactive"
- molecule: "CC1CN=C(Nc2cccc3ccccc23)S1 (centres undefined)"
  target_or_system: "Cytochrome P450 1A2 (Homo sapiens) (UniProt P05177)"
  group_label: "active"
- molecule: "Cc1cccc(NC(=S)NC2CC3CCCC(C2)N3Cc2cccs2)c1 (centres undefined)"
  target_or_system: "Cytochrome P450 1A2 (Homo sapiens) (UniProt P05177)"
  group_label: "inactive"
- molecule: "CN1[C@@H]2CC[C@H]1CC(O[C@@H](c1ccccc1)c1ccc(Cl)cc1)C2 (some centres undefined)"
  target_or_system: "Cytochrome P450 1A2 (Homo sapiens) (UniProt P05177)"
  group_label: "inactive"
- molecule: "O=NN(Cc1ccc(Cl)cc1)[C@@H](C(=O)O)c1ccccc1"
  target_or_system: "Cytochrome P450 1A2 (Homo sapiens) (UniProt P05177)"
  group_label: "active"
- molecule: "CCCn1c(=O)c2[nH]c(C3CCCC3)nc2n(CCCOC(=O)c2ccc(S(=O)(=O)F)cc2)c1=O"
  target_or_system: "Cytochrome P450 1A2 (Homo sapiens) (UniProt P05177)"
  group_label: "inactive"
- molecule: "NC(N)=NS(=O)(=O)c1ccc(N)cc1"
  target_or_system: "Cytochrome P450 1A2 (Homo sapiens) (UniProt P05177)"
  group_label: "inactive"
- molecule: "CCCCN1C(=O)C(C2c3ccccc3C(=O)N2Cc2ccccc2)C(=O)NC1=S (centres undefined)"
  target_or_system: "Cytochrome P450 1A2 (Homo sapiens) (UniProt P05177)"
  group_label: "active"
- molecule: "CCN1CCN(S(=O)(=O)c2ccc(Cl)nc2)CC1"
  target_or_system: "Cytochrome P450 1A2 (Homo sapiens) (UniProt P05177)"
  group_label: "inactive"
- molecule: "CCCN1CCC[C@H](c2cccc(O)c2)C1"
  target_or_system: "Cytochrome P450 1A2 (Homo sapiens) (UniProt P05177)"
  group_label: "inactive"
- molecule: "NC(N)=Nc1ccc2[nH]c3c(c2c1)C[C@]1(O)[C@@H]2Cc4ccc(O)c5c4[C@]1(CCN2CC1CC1)[C@@H]3O5"
  target_or_system: "Cytochrome P450 1A2 (Homo sapiens) (UniProt P05177)"
  group_label: "inactive"
- molecule: "CN1CCC2(CC1)CCN(C(=O)Oc1ccccc1)CC2"
  target_or_system: "Cytochrome P450 1A2 (Homo sapiens) (UniProt P05177)"
  group_label: "inactive"
- molecule: "CCCCc1ccc(-c2nc(NC(=O)C3C4CCC(O4)C3C(=O)O)sc2C)cc1 (centres undefined)"
  target_or_system: "Cytochrome P450 1A2 (Homo sapiens) (UniProt P05177)"
  group_label: "active"
- molecule: "O=c1c2ccccc2nc(N2CCCC2)n1-c1ccc(Cl)cc1"
  target_or_system: "Cytochrome P450 1A2 (Homo sapiens) (UniProt P05177)"
  group_label: "active"
- molecule: "CCNC(=S)NC1CC2CCCC(C1)N2Cc1ccco1 (centres undefined)"
  target_or_system: "Cytochrome P450 1A2 (Homo sapiens) (UniProt P05177)"
  group_label: "inactive"
- molecule: "COC(=O)c1[nH]c2ccc(Br)cc2c1NC(=O)Oc1ccccc1"
  target_or_system: "Cytochrome P450 1A2 (Homo sapiens) (UniProt P05177)"
  group_label: "active"
- molecule: "CCCc1cc2c(n1CCO)C(C)C1CN(C(=O)c3ccccc3)C(C)(C(=O)OC)C21 (centres undefined)"
  target_or_system: "Cytochrome P450 1A2 (Homo sapiens) (UniProt P05177)"
  group_label: "inactive"
- molecule: "Cn1cccc1CNCCc1ccccc1"
  target_or_system: "Cytochrome P450 1A2 (Homo sapiens) (UniProt P05177)"
  group_label: "inactive"
- molecule: "CN1CCc2cccc(Cl)c2CC1"
  target_or_system: "Cytochrome P450 1A2 (Homo sapiens) (UniProt P05177)"
  group_label: "inactive"
- molecule: "COc1ccc2[nH]cc(CCN(C)C)c2c1"
  target_or_system: "Cytochrome P450 1A2 (Homo sapiens) (UniProt P05177)"
  group_label: "active"
- molecule: "CS(=O)(=O)N1CCC2(CC1)CN(Cc1ccncc1)C2"
  target_or_system: "Cytochrome P450 1A2 (Homo sapiens) (UniProt P05177)"
  group_label: "inactive"
- molecule: "O=P(O)(O)C(Cl)(Cl)P(=O)(O)O"
  target_or_system: "Cytochrome P450 1A2 (Homo sapiens) (UniProt P05177)"
  group_label: "inactive"
- molecule: "O=C(Oc1ccccc1)N1CCC2(CCCN(Cc3nccs3)C2)CC1"
  target_or_system: "Cytochrome P450 1A2 (Homo sapiens) (UniProt P05177)"
  group_label: "inactive"
- molecule: "O=C(O)CP(=O)(O)c1ccc(Cl)cc1"
  target_or_system: "Cytochrome P450 1A2 (Homo sapiens) (UniProt P05177)"
  group_label: "inactive"
- molecule: "NC[C@@H](CC(=O)O)c1ccc(Cl)cc1"
  target_or_system: "Cytochrome P450 1A2 (Homo sapiens) (UniProt P05177)"
  group_label: "inactive"
- molecule: "Fc1ccc(CCNCc2ccc(Cl)c(Cl)c2)cc1"
  target_or_system: "Cytochrome P450 1A2 (Homo sapiens) (UniProt P05177)"
  group_label: "active"
- molecule: "CN1[C@@H](C[C@@H](O)c2ccccc2)CCC[C@@H]1C[C@H](O)c1ccccc1"
  target_or_system: "Cytochrome P450 1A2 (Homo sapiens) (UniProt P05177)"
  group_label: "active"
- molecule: "c1csc(CN2CC[C@@]3(CCCNC3)C2)n1"
  target_or_system: "Cytochrome P450 1A2 (Homo sapiens) (UniProt P05177)"
  group_label: "inactive"
- molecule: "c1ccc2c(N3CCNCC3)cccc2c1"
  target_or_system: "Cytochrome P450 1A2 (Homo sapiens) (UniProt P05177)"
  group_label: "active"
- molecule: "NCCc1c[nH]c2ccc(OC(=O)C(=O)O)cc12"
  target_or_system: "Cytochrome P450 1A2 (Homo sapiens) (UniProt P05177)"
  group_label: "active"
- molecule: "S=C(S)N1CCCC1"
  target_or_system: "Cytochrome P450 1A2 (Homo sapiens) (UniProt P05177)"
  group_label: "active"
- molecule: "C=CCN1CC[C@]23c4c5ccc(O)c4O[C@@H]2/C(=N/NC(=O)c2ccccc2)CC[C@@]3(O)[C@H]1C5"
  target_or_system: "Cytochrome P450 1A2 (Homo sapiens) (UniProt P05177)"
  group_label: "inactive"
- molecule: "CN1CC[C@@]23c4ccccc4N[C@H]1[C@]21CCN(C)[C@@H]3Nc2ccccc21"
  target_or_system: "Cytochrome P450 1A2 (Homo sapiens) (UniProt P05177)"
  group_label: "inactive"
- molecule: "C[C@@H]1Cc2cc3c(cc2C(c2ccc(N)cc2)=NN1)OCO3"
  target_or_system: "Cytochrome P450 1A2 (Homo sapiens) (UniProt P05177)"
  group_label: "active"
- molecule: "CN1C(=O)c2ccccc2Sc2ccc(C(=O)N3CCC4(CC3)OCCO4)cc21"
  target_or_system: "Cytochrome P450 1A2 (Homo sapiens) (UniProt P05177)"
  group_label: "inactive"
- molecule: "CCOc1ccc(C2C(C#N)=C(N)Oc3c2c(=O)oc2ccccc32)cc1 (centres undefined)"
  target_or_system: "Cytochrome P450 1A2 (Homo sapiens) (UniProt P05177)"
  group_label: "active"
